- target_or_system: CyclinB1/CDK1 (Homo sapiens)
- Construct: purchased Eurofins, discovery 14-450
- procedure_details: Fluorescence Polarization (FP) competitive binding assay, Cyclin B1/Cdk1;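 also: fluorescence polarization read after equilibration at room temperature, with IC50 taken from serially diluted dose-response curves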
- measurement_parameters: 10 nM Cyclin B1/Cdk1, 2 nM FAM probe; average of 2-3 independent experiments; read-out: Cyclin B FP IC50
*1 amine or outer side, *2 acyl side, *3 side chain or, on linkers, in order; H or OH if unused. Where a SMILES comes first, the peptide text is derived from it. Bridges are numbered along the chain shown (N, C = ends). [ ]: non-standard residue; d: D form. The star is where a group is joined. X153 = CN([C@@H](Cc1cc(F)ccc1-c1cnn(C2CCOCC2)c1)C(=O)[*:2])[*:1]; X172 = CC(=O)N1CC=C(c2ccc(F)cc2C[C@@H](C(=O)[*:2])N(C)[*:1])CC1; NMehhhLys(Me) = CN([C@@H](CCCCCCCN(C)[*:3])C(=O)[*:2])[*:1]; X194 = CN([C@@H](Cc1cc(Cl)ccc1-c1ccnnc1)C(=O)[*:2])[*:1]; NMe(hhhLys) = CN([C@@H](CCCCCCCN[*:3])C(=O)[*:2])[*:1]; cBuCO(3,3-F2-1-CF3) = O=C(C1(C(F)(F)F)CC(F)(F)C1)*; Pro(trans-4-F) = O=C(O)[C@@H]1C[C@@H](F)CN1; Gly(cPr) = N[C@H](C(=O)O)C1CC1
recorded_endpoint: IC50 (nM)
Could you give me the number in nM? Just the number is fine.

Examples with their reported IC50 follow.
CC(C)C[C@@H]1NC(=O)[C@@H](N(C)C(=O)[C@@H](NC(=O)[C@@H]2C[C@@H](F)CN2C(=O)C2(C(F)(F)F)CC(F)(F)C2)C2CC2)CCCCCCCN(C)C(=O)[C@H](Cc2cc(F)ccc2-c2cnn(C3CCOCC3)c2)N(C)C1=O [Example 93] ({cBuCO(3,3-F2-1-CF3)}-[Pro(trans-4-F)][Gly(cPr)][NMehhhLys(Me)]L[X153]; lactam 3-C) ... 20
CC(=O)N1CC=C(c2ccc(F)cc2C[C@H]2C(=O)NCCCCCCC[C@H](N(C)C(=O)[C@@H](NC(=O)[C@@H]3C[C@@H](F)CN3C(=O)C3(C(F)(F)F)CC(F)(F)C3)C3CC3)C(=O)N[C@@H](CC(C)C)C(=O)N2C)CC1 [Example 217] ({cBuCO(3,3-F2-1-CF3)}-[Pro(trans-4-F)][Gly(cPr)][NMe(hhhLys)]L[X172]; lactam 3-C) ... 20

Now take the following compound into account.
input: Can you look up the measured IC50 of CC(C)C[C@@H]1NC(=O)[C@@H](N(C)C(=O)[C@@H](NC(=O)[C@@H]2C[C@@H](F)CN2C(=O)C2(C(F)(F)F)CC(F)(F)C2)C2CC2)CCCCCCCNC(=O)[C@H](Cc2cc(Cl)ccc2-c2ccnnc2)N(C)C1=O [Example 291] ({cBuCO(3,3-F2-1-CF3)}-[Pro(trans-4-F)][Gly(cPr)][NMe(hhhLys)]L[X194]; lactam 3-C) for me?
output: 20

* * *

- target_or_system: CyclinE1/CDK2 (Homo sapiens, UniProt P24864)
- Construct: purchased Eurofins, discovery 14-475
- procedure_details: Fluorescence Polarization (FP) competitive binding assay, Cyclin E1/Cdk2;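 also: readings taken after two-hour equilibration at room temperature in HEPES buffer with NaCl, DTT, NP-40 and BSA, IC50 fitted from eight-concentration serial dilution series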
- measurement_parameters: 10 nM Cyclin E1/Cdk2, 2 nM FAM probe; average of 2-3 independent experiments; read-out: Cyclin E FP IC50
*1 amine or outer side, *2 acyl side, *3 side chain or, on linkers, in order; H or OH if unused. Where a SMILES comes first, the peptide text is derived from it. Bridges are numbered along the chain shown (N, C = ends). [ ]: non-standard residue; d: D form. The star is where a group is joined. X146 = CC(C)C(=O)N1[C@@H]2CC[C@H]1C=C(c1ccc(Cl)cc1C[C@@H](C(=O)[*:2])N(C)[*:1])C2; NMePhe(2-(4-MorPh),5-Cl) = CN[C@@H](Cc1cc(Cl)ccc1-c1ccc(N2CCOCC2)cc1)C(=O)O; X153 = CN([C@@H](Cc1cc(F)ccc1-c1cnn(C2CCOCC2)c1)C(=O)[*:2])[*:1]; X171 = CC(=O)N1CC=C(c2ncc(Cl)cc2C[C@@H](C(=O)[*:2])N(C)[*:1])CC1; X26 = CN([C@@H](Cc1cc(F)ccc1-c1cnn(C2CC2)c1)C(=O)[*:2])[*:1]; NMehhhLys(Me) = CN([C@@H](CCCCCCCN(C)[*:3])C(=O)[*:2])[*:1]; X29 = CN([C@@H](Cc1cc(Cl)ccc1-c1cn[nH]c1)C(=O)[*:2])[*:1]; NMe3Pal(2-OcPr,5-F) = CN[C@@H](Cc1cc(F)cnc1OC1CC1)C(=O)O; NMe(hhhLys) = CN([C@@H](CCCCCCCN[*:3])C(=O)[*:2])[*:1]; X152 = CN([C@@H](Cc1cc(Cl)ccc1OC1CC1)C(=O)[*:2])[*:1]; Cyclobutanecarbonyl(1-CF3) = O=C(C1(C(F)(F)F)CCC1)*; cBuCO(3,3-F2-1-CF3) = O=C(C1(C(F)(F)F)CC(F)(F)C1)*; Pro(trans-4-F) = O=C(O)[C@@H]1C[C@@H](F)CN1; Gly(cPr) = N[C@H](C(=O)O)C1CC1; X102 = C[C@]1(C(=O)*)CC1(F)F
This listing pairs molecules with measured IC50.
Could you give me the number in nM? Just the number is fine.

Examples with their reported IC50 follow.
CC(C)C[C@@H]1NC(=O)[C@@H](N(C)C(=O)[C@@H](NC(=O)[C@@H]2C[C@@H](F)CN2C(=O)C2(C(F)(F)F)CCC2)C2CC2)CCCCCCCN(C)C(=O)[C@H](Cc2cc(F)ccc2-c2cnn(C3CC3)c2)N(C)C1=O [Example 186] ({Cyclobutanecarbonyl(1-CF3)}-[Pro(trans-4-F)][Gly(cPr)][NMehhhLys(Me)]L[X26]; lactam 3-C) ... 100
CC(=O)N1CC=C(c2ncc(Cl)cc2C[C@H]2C(=O)NCCCCCCC[C@H](N(C)C(=O)[C@@H](NC(=O)[C@@H]3C[C@@H](F)CN3C(=O)C3(C(F)(F)F)CC(F)(F)C3)C3CC3)C(=O)N[C@@H](CC(C)C)C(=O)N2C)CC1 [Example 302] ({cBuCO(3,3-F2-1-CF3)}-[Pro(trans-4-F)][Gly(cPr)][NMe(hhhLys)]L[X171]; lactam 3-C) ... 3560
CC(C)C[C@@H]1NC(=O)[C@@H](N(C)C(=O)[C@@H](NC(=O)[C@@H]2C[C@@H](F)CN2C(=O)[C@@]2(C)CC2(F)F)C2CC2)CCCCCCCN(C)C(=O)[C@H](Cc2cc(Cl)ccc2-c2ccc(N3CCOCC3)cc2)N(C)C1=O [Example 400] (X102-[Pro(trans-4-F)][Gly(cPr)][NMehhhLys(Me)]L[NMePhe(2-(4-MorPh),5-Cl)]; lactam 3-C) ... 490
CC(C)C[C@@H]1NC(=O)[C@@H](N(C)C(=O)[C@@H](NC(=O)[C@@H]2C[C@@H](F)CN2C(=O)C2(C(F)(F)F)CC(F)(F)C2)C2CC2)CCCCCCCN(C)C(=O)[C@H](Cc2cc(Cl)ccc2-c2cn[nH]c2)N(C)C1=O [Example 167] ({cBuCO(3,3-F2-1-CF3)}-[Pro(trans-4-F)][Gly(cPr)][NMehhhLys(Me)]L[X29]; lactam 3-C) ... 280
CC(=O)N1CC=C(c2ccc(Cl)cc2C[C@H]2C(=O)N(C)CCCCC=CC[C@H](N(C)C(=O)[C@@H](NC(=O)[C@@H]3C[C@@H](F)CN3C(=O)C3(C(F)(F)F)CC(F)(F)C3)C3CC3)C(=O)N[C@@H](CC(C)C)C(=O)N2C)CC1 [Example 31] ... 2200

input: Can you look up the measured IC50 of Cc1nnc(-c2ccc(Cl)cc2C[C@H]2C(=O)NCCCCC=CC[C@H](N(C)C(=O)[C@@H](NC(=O)[C@@H]3C[C@@H](F)CN3C(=O)C3(C(F)(F)F)CCC3)C3CC3)C(=O)N[C@@H](CC(C)C)C(=O)N2C)o1 (single isomer, unassigned) [Example 117-P1] for me?
output: 340

input: Would you kindly repeat that for CC(C)C[C@@H]1NC(=O)[C@@H](N(C)C(=O)[C@@H](NC(=O)[C@@H]2C[C@@H](F)CN2C(=O)C2(C(F)(F)F)CC(F)(F)C2)C2CC2)CCCCCCCN(C)C(=O)[C@H](Cc2cc(Cl)ccc2OC2CC2)N(C)C1=O [Example 314] ({cBuCO(3,3-F2-1-CF3)}-[Pro(trans-4-F)][Gly(cPr)][NMehhhLys(Me)]L[X152]; lactam 3-C) ?
output: 140

input: Would you kindly repeat that for CC(C)C[C@@H]1NC(=O)[C@@H](N(C)C(=O)[C@@H](NC(=O)[C@@H]2C[C@@H](F)CN2C(=O)C2(C(F)(F)F)CC(F)(F)C2)C2CC2)CC=CCCCCNC(=O)[C@H](Cc2cc(Cl)cnc2OC2CC2)N(C)C1=O (single isomer, unassigned) [Example 102-P2] ?
output: 310

input: Would you kindly repeat that for CC(C)C[C@@H]1NC(=O)[C@@H](N(C)C(=O)[C@@H](NC(=O)[C@@H]2C[C@@H](F)CN2C(=O)C2(C(F)(F)F)CC(F)(F)C2)C2CC2)CCCCCCCNC(=O)[C@H](Cc2cc(F)cnc2OC2CC2)N(C)C1=O [Example 127] ({cBuCO(3,3-F2-1-CF3)}-[Pro(trans-4-F)][Gly(cPr)][NMe(hhhLys)]L[NMe3Pal(2-OcPr,5-F)]; lactam 3-C) ?
output: 230

input: Would you kindly repeat that for CC(C)C[C@@H]1NC(=O)[C@@H](N(C)C(=O)[C@@H](NC(=O)[C@@H]2C[C@@H](F)CN2C(=O)C2(C(F)(F)F)CCC2)C2CC2)CC=CCCCCNC(=O)[C@H](Cc2cc(Cl)ccc2Oc2ncccn2)N(C)C1=O (single isomer, unassigned) [Example 156-P2] ?
output: 240

input: Would you kindly repeat that for CC(C)C[C@@H]1NC(=O)[C@@H](N(C)C(=O)[C@@H](NC(=O)[C@@H]2C[C@@H](F)CN2C(=O)C2(C(F)(F)F)CC(F)(F)C2)C2CC2)CCCCCCCNC(=O)[C@H](Cc2cc(Cl)ccc2C2=C[C@@H]3CC[C@H](C2)N3C(=O)C(C)C)N(C)C1=O [Example 312] ({cBuCO(3,3-F2-1-CF3)}-[Pro(trans-4-F)][Gly(cPr)][NMe(hhhLys)]L[X146]; lactam 3-C) ?
output: 740

input: Would you kindly repeat that for CC(C)C[C@@H]1NC(=O)[C@@H](N(C)C(=O)[C@@H](NC(=O)[C@@H]2C[C@@H](F)CN2C(=O)C2(C(F)(F)F)CC(F)(F)C2)C2CC2)CCCCCCCN(C)C(=O)[C@H](Cc2cc(F)ccc2-c2cnn(C3CCOCC3)c2)N(C)C1=O [Example 93] ({cBuCO(3,3-F2-1-CF3)}-[Pro(trans-4-F)][Gly(cPr)][NMehhhLys(Me)]L[X153]; lactam 3-C) ?
output: 140
